# assay.name: in vitro
# condition.details: human, hela cells, % viability

| mol.smiles | viability at 28.5 h, 10 µM, % |
| --- | --- |
| CCCCN(CC(F)(F)F)C(=O)Cc1csc(NC(=O)C(C)C)n1 | 99.5 |
| CC[C@H]1CN(C(=O)c2cccnc2)CC[C@H]1CC(=O)NCc1ccc(F)cc1 | 88.6 |
| CNC(=O)c1cnn2c(C)c(Cc3cccnc3)c(C)nc12 | 78.2 |
| Cc1cccc(CN2CCC(NC(=O)NCc3ccn(C)c3)CC2)c1 | 105 |
| O=C(CSc1nnc(-c2cccnc2)n1-c1ccc(Br)cc1)Nc1cc(C(F)(F)F)ccc1Cl | 96.5 |
| COc1ccc(Cn2nc(NC(=O)Nc3c(C)noc3C)c3ccccc32)cc1 | 88.9 |
| O=C(CCc1cccnc1)N1CCCc2ccccc21 | 100 |
| CCc1cc2c(=O)c(-c3nc4ccccc4n3C)c(C)oc2c(CN2CCOCC2)c1O | 94.1 |
| COc1ccc(C2=C(Nc3ccc(C(=O)NCc4cccnc4)cc3)c3ccccc3C2=O)cc1 | 89.1 |

====

# assay.name: in vitro
# condition.details: human, hela cells, % viability

| compound | viability at 28.5 h, 10 µM [%] |
| --- | --- |
| O=C(O)c1cc2nc3c(c(C(F)(F)F)n2n1)CCc1ccccc1-3 | 102 |
| COc1ccc(C(C)C)cc1-c1cnc(N)c(NCCCN2CCOCC2)n1 | 79.4 |
| Cn1nc(-c2ccc(F)cc2)cc1[C@H]1CN2CC[C@H]1C[C@@H]2CNS(C)(=O)=O | 98.8 |
| O=C(CN1CCOCC1)N1CCC(Cn2cncn2)(C2CCCCC2)CC1 | 95.7 |
| Cn1cc([C@@H]2CN(Cc3ccc(F)c(F)c3)C[C@H]2N)c2ccncc21 | 88.3 |
| CC(C)NC(=O)c1sc2ccccc2c1C1CN(C(=O)CC2CCCCC2)CCO1 (stereo not shown) | 91.5 |
| CC(Oc1ccc(Cl)cc1Cl)C(=O)NC(=S)Nc1ccc2c(c1)C(=O)N(C)C2=O (stereo not shown) | 93.9 |
| COc1ccc(OCC(=O)N2CCN(C3CCC(c4ccccc4)CC3)CC2)cc1 (stereo not shown) | 97.7 |
| CCOc1cc(/C=C2/NC(=O)N(c3ccccc3)C2=O)cc(Cl)c1OCc1cccc(C(=O)O)c1 | 92 |
| NC(=O)c1c(NC(=O)Cn2cnc([N+](=O)[O-])n2)sc2c1CCCC2 | 98.6 |
| COc1ccc(C(O)c2coc3ccc(O)c(CN(C)C)c23)cc1 (stereo not shown) | 96.4 |
| CN(C)Cc1nc(C(=O)N2CCn3nc(C(O)C4CC4)cc3C2)cs1 (stereo not shown) | 101 |
| COc1ccc2c(CC(=O)Nc3cccc(-c4csc(C)n4)c3)coc2c1 | 94 |
| CC1(C(=O)NC2CCN(Cc3cccc(F)c3)CC2)CCCO1 (stereo not shown) | 91.6 |
| CC(=O)c1csc(NC(=O)Cn2ccc3ccc(F)cc32)n1 | 90.5 |
| O=C(Nc1nn[nH]n1)C1CCCCC1 | 112 |
| NS(=O)(=O)c1ccc(C(=O)N2CCC3(CCN(C(=O)c4cc(F)c(F)cc4F)C3)C2)cc1 (stereo not shown) | 104 |
| Cc1nc(NCCCn2ccnc2)c2ccccc2n1 | 95.1 |
| Ic1cnn(Cc2nc(-c3ccccc3)no2)c1 | 90.3 |
